Reference source for all entries: the Kinase Knowledgebase extract (Sharma et al. 2016)

- assayed_target: CDK2 (human)
- protocol_summary: Enzyme Assay
- experimental_setup: concentration not given here
Would you mind telling me the reported inhibition of each entry?
One number for each entry, in %.

Below, 2 compounds whose answers are already recorded.
Nc1nc(NC2CCN(C(=O)COc3ccccc3)CC2)sc1C(=O)c1c(F)cccc1F 59
Nc1nc(NC2CCN(C(=O)[C@@H](O)c3ccccc3)CC2)sc1C(=O)c1c(F)cccc1F 61

Query compound follows.
Return reported inhibition; argument: Nc1nc(NC2CCN(C(=O)c3ccccc3-n3cccc3)CC2)sc1C(=O)c1c(F)cccc1F
50

###

- assayed_target: UniProt:P24941
- protocol_summary: Enzyme Assay
- experimental_setup: concentration not given here
measured_quantity: inhibition (%)
Numbers only, in %.

Below, 3 molecules whose answers are already recorded.
molecule	assayed_target	inhibition (%)
COc1cccc(CC(=O)N2CCC(Nc3nc(N)c(C(=O)c4c(F)cccc4F)s3)CC2)c1OC	UniProt:P24941	70
COc1ncccc1C(=O)N1CCC(Nc2nc(N)c(C(=O)c3c(F)cccc3F)s2)CC1	UniProt:P24941	40
Nc1nc(NC2CCN(C(=O)C3(c4ccccc4)CCCC3)CC2)sc1C(=O)c1c(F)cccc1F	UniProt:P24941	-13

// for each molecule below, give its inhibition
1. CCOC(=O)CCC(=O)N1CCC(Nc2nc(N)c(C(=O)c3c(F)cccc3F)s2)CC1
2. COc1cc(N)ccc1/C=C/C(=O)N1CCC(Nc2nc(N)c(C(=O)c3c(F)cccc3F)s2)CC1
3. COC(=O)CC(=O)N1CCC(Nc2nc(N)c(C(=O)c3c(F)cccc3F)s2)CC1
4. Cc1ccc(C)c(/C=C/C(=O)N2CCC(Nc3nc(N)c(C(=O)c4c(F)cccc4F)s3)CC2)c1
5. CC(CO)(CO)C(=O)N1CCC(Nc2nc(N)c(C(=O)c3c(F)cccc3F)s2)CC1
6. COC(=O)c1cccc(C(=O)N2CCC(Nc3nc(N)c(C(=O)c4c(F)cccc4F)s3)CC2)c1

54
56
-24
34
17
65

Return reported inhibition; argument: Nc1nc(NC2CCN(C(=O)C(CO)c3ccccc3)CC2)sc1C(=O)c1c(F)cccc1F (stereo not given)
57

###

- assayed_target: CDK2 (human) (UniProt P24941)
- protocol_summary: Enzyme Assay
- experimental_setup: concentration not given here
Outcome label depends on inhibition relative to 40%: at/above gives satisfied, below gives not satisfied.

Use the examples below as a reference point.
Cc1nn(C)c2ncc(C(=O)N3CCC(Nc4nc(N)c(C(=O)c5c(F)cccc5F)s4)CC3)c(Cl)c12 not satisfied
CC/C=C\CC(=O)N1CCC(Nc2nc(N)c(C(=O)c3c(F)cccc3F)s2)CC1 satisfied
Cc1c(F)cccc1C(=O)N1CCC(Nc2nc(N)c(C(=O)c3c(F)cccc3F)s2)CC1 not satisfied
CCC[C@H]1CC[C@H](C(=O)N2CCC(Nc3nc(N)c(C(=O)c4c(F)cccc4F)s3)CC2)CC1 satisfied

Exam item: decide whether the reported inhibition for Nc1nc(NC2CCN(C(=O)c3cnc4ccccc4c3)CC2)sc1C(=O)c1c(F)cccc1F is at least 40%.
not satisfied

###

- assayed_target: CDK2 (human) (UniProt P24941)
- protocol_summary: Enzyme Assay
- experimental_setup: concentration not given here
Note: every record was labeled by where its inhibition sits among low end = under -10%, middle = from -10% up to 50%, high end = 50% and over

Use the examples below as a reference point.
compound	classification
Nc1nc(NC2CCN(C(=O)C(O)c3ccccc3)CC2)sc1C(=O)c1c(F)cccc1F (configuration not stated)	high end
CCOC(=O)N1CCC(Nc2nc(N)c(C(=O)c3c(F)cccc3F)s2)CC1	low end
[N-]=[N+]=C1C=C(S(=O)(=O)N2CCC(Nc3nc(N)c(C(=O)c4c(F)cccc4F)s3)CC2)c2ccccc2C1=O	low end

Form field 'band' for CCCCCCCC(CC)C(=O)N1CCC(Nc2nc(N)c(C(=O)c3c(F)cccc3F)s2)CC1 (configuration not stated)
middle

Form field 'band' for Nc1nc(NC2CCN(C(=O)CC3CCCC3)CC2)sc1C(=O)c1c(F)cccc1F
low end
